Ref: the supplement of paper PMC10065799

target: Grb2 SH2 (UniProt P62993); assay: SH2 binding enrichment of the phosphorylated peptide, bacterial display (enrichment ratio); higher = better substrate or ligand; peptides without Tyr show the background
Sequence (P62993 whole entry, looked up): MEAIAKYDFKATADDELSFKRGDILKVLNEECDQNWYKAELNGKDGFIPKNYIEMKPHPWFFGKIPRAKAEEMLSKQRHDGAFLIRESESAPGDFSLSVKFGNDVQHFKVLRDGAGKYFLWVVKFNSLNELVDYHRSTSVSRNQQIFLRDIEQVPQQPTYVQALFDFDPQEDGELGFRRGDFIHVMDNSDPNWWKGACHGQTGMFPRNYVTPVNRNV
Lab note: compare SH2 binding enrichment against 0.8. Equal or greater, write YES. Smaller, write NO.

The examples below pair each entry with its known result.
KVGPGYLGSGG [RET_Y826]
NO
ALAAPYVLFPG [CEFIP_Y1332_YF]
YES
EADRKYEEVAG [TPM3_Y163_R168G]
YES
EDKSIYRRGAC [PRKCI_Y125_R130C]
YES

Quick check, SH2 binding enrichment >= 0.8? CEHRGFLFLAI [TEK_Y897_Y897F_YF] YES

Record ITVCDYTNPCP [MYD88_Y276_T281P] ; criterion: SH2 binding enrichment no lower than 0.8. Met? YES

Identify whether the reported SH2 binding enrichment of the following sequence is 0.8 or greater: TIMTDYNPNFC [ALK_Y1092_YF] YES

Textbook exercise: given the entry VFAPDFIAGVS [NOB1_Y366_Y366F] , state whether its SH2 binding enrichment is greater than or equal to 0.8. NO

Identify whether the reported SH2 binding enrichment of the following sequence is 0.8 or greater: KCLAVYQAGAR [APOE_Y180_R176C] YES

====

system: Fer (mouse); test: phosphorylation enrichment, bacterial display (enrichment ratio); higher = better substrate or ligand; peptides without Tyr show the background;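 note: frequency after pTyr selection over input frequency; kinase dosed for 20-30% of maximal phosphorylation in three min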
// label = 1.0 if phosphorylation enrichment is not less than 0.9, otherwise 0.0

Use these answered entries as a reference point.
GVLKEYGVKVL [CPS1_Y529]
0.0
KVGPGYLGSGG [RET_Y826]
0.0
TPRNTYKMTSL [MKI67_Y849]
0.0
LDMSQYFRLFN [CPT2_Y217]
0.0
YSIAQYCCRMG [LRRK2_Y2023_G2019S]
1.0

Kindly consider the entry below.
Reported phosphorylation enrichment reaches at least 0.9 for LRTAVYHEILI [CREBBP_Y1450] ? 1.0

====

system: Fer (mouse); experiment: phosphorylation enrichment, bacterial display (enrichment ratio); higher = better substrate or ligand; peptides without Tyr show the background;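 note: 11-residue human phosphosite peptides and single-mutation variants displayed on the E. coli surface, counted by deep sequencing, each peptide's frequency after selection divided by its frequency in the unselected input library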;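 note: frequency after pTyr selection over input frequency; kinase dosed for 20-30% of maximal phosphorylation in three min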
Okay, here is how we bin by phosphorylation enrichment: zone 1 (below 0.5), zone 2 (0.5 to below 0.9), zone 3 (0.9 or more)

EPNSRYTYKLE [USH2A_Y3745]
zone 1

Which class is correct for the following sequence? WTAHSYRMGSA [ARHGEF7_Y785_T790A] zone 1

Determine which band this sequence sits in: GHEYIYVDPMQ [PDGFRA_Y574] zone 3

Which class is correct for the following sequence? PLKYLYPNIDK [STAT1_Y668] zone 2

Into which category would you place EDKSIYRRGAC [PRKCI_Y125_R130C] ? zone 1

Where would PPDGEYFTLQI [TP53_Y327_L323P] land among the classes by reported phosphorylation enrichment? zone 3

Each sequence maps to one class by phosphorylation enrichment. Which class for KGEDFYFVTCH [FHL1_Y149_C150Y_YF] ? zone 2

Note: place this sequence into its band. Item: FVFSFYHAFSG [ACTN4_Y265_S262F_YF] zone 1

Would you mind sorting PLQKTYNYNML [SLC4A1_Y553_V557M] into the appropriate category? zone 1

Dear colleague, I would appreciate it if you could identify the bin for NPIGLYSAEIL [LDB3_Y202_T206I] and reply at your convenience. zone 3

Returns: class label. Input: MSSLYYANALF [HOXB7_Y6_T9A] zone 3

Bin? VKPENYRRLDI [VHL_Y175] zone 1

State the band of ARVDTYCRHNY [HLA-DRB1_Y107_A103R] zone 2

Any idea which band SDPIIYTLENI [ADGRE1_Y534] is in? zone 3

// return the class label for DDEVFYSPRSL [OTC_Y317] zone 3

Form field 'band' for EHLNRYINDTF [TTLL10_Y446_S448N] zone 2

Where would SLFNGYVYSGV [NEIL3_Y71] land among the classes by reported phosphorylation enrichment? zone 2
